biological target: Dual specificity tyrosine-phosphorylation-regulated kinase 1A (Homo sapiens); test: Inhibition of recombinant DYRK1A (unknown origin) using Ser/Thr 18 peptide as substrate incubated for 1 hr in presence of ATP by FRET assay
Cut-off 10 nM on EC50: below means yes (1), at or above means no (0).

- Structure smiles string: "CC(C)Nc1cncc(-c2ccc3[nH]nc(-c4nc5c(-c6cc(F)cc(NCCN(C)C)c6)nccc5[nH]4)c3c2)c1"
  Discrete label: "no (0)"
- Structure smiles string: "CN(C)Cc1cncc(-c2cnc3[nH]nc(-c4nc5c(-c6cc(F)cc(N7CCOCC7)c6)cncc5[nH]4)c3c2)c1"
  Discrete label: "no (0)"
- Structure smiles string: "O=C(Nc1cnccc1NC(=O)C1CC1)c1n[nH]c2ccc(-c3cccnc3)cc12"
  Discrete label: "yes (1)"
- Structure smiles string: "O=C(Nc1cncc(-c2cnc3[nH]nc(-c4cc5cnccc5[nH]4)c3c2)c1)c1ccccc1"
  Discrete label: "yes (1)"
- Structure smiles string: "O=C(Nc1cnccn1)c1n[nH]c2ccc(-c3cncc(CN4CCCCCC4)c3)cc12"
  Discrete label: "yes (1)"
- Structure smiles string: "Cc1ccc(-c2nccc3[nH]c(-c4n[nH]c5ccc(-c6cncc(N)c6)nc45)nc23)s1"
  Discrete label: "yes (1)"
- Structure smiles string: "Cc1ccc(-c2nccc3[nH]c(-c4n[nH]c5ccc(-c6cncc(N)c6)cc45)nc23)s1"
  Discrete label: "no (0)"
- Structure smiles string: "Cc1cn(-c2nccc3[nH]c(-c4n[nH]c5ccc(-c6cncc(NC(=O)C(C)(C)C)c6)nc45)nc23)cn1"
  Discrete label: "no (0)"
- Structure smiles string: "CN(C)Cc1cncc(NC(=O)c2n[nH]c3ccc(-c4cncc(CN5CCCC5)c4)cc23)c1"
  Discrete label: "yes (1)"
- Structure smiles string: "CCCC(=O)Nc1cncc(-c2cc3c(-c4cc5c(-c6cc(F)cc(NCCN(C)C)c6)ccnc5[nH]4)n[nH]c3cn2)c1"
  Discrete label: "no (0)"
- Structure smiles string: "Fc1cccc(-c2cncc3[nH]c(-c4n[nH]c5ncc(-c6cccnc6)cc45)nc23)c1"
  Discrete label: "no (0)"
- Structure smiles string: "O=C(Nc1cncc(-c2cc3c(-c4cc5c(-c6cccc(F)c6)ccnc5[nH]4)n[nH]c3cn2)c1)C1CC1"
  Discrete label: "no (0)"
- Structure smiles string: "c1cnc2[nH]c(-c3n[nH]c4ccc(-c5cncc(CN6CCCCC6)c5)cc34)cc2c1"
  Discrete label: "yes (1)"
- Structure smiles string: "Nc1cncc(-c2cnc3[nH]nc(-c4cc5c(-c6ccccc6F)nccc5[nH]4)c3c2)c1"
  Discrete label: "no (0)"
- Structure smiles string: "CC(C)CC(=O)Nc1cncc(-c2ccc3[nH]nc(-c4cc5c(-c6ccncc6)cncc5[nH]4)c3c2)c1"
  Discrete label: "yes (1)"
- Structure smiles string: "Cc1ccncc1-c1cc2c(-c3nc4c(-c5cc(F)cc(CNS(C)(=O)=O)c5)ccnc4[nH]3)n[nH]c2cn1"
  Discrete label: "no (0)"
- Structure smiles string: "CC(C)(C)C(=O)Nc1cncc(-c2cc3c(-c4nc5c(-c6ccc(F)s6)nccc5[nH]4)n[nH]c3cn2)c1"
  Discrete label: "no (0)"
- Structure smiles string: "CN(C)Cc1cncc(-c2cnc3[nH]nc(-c4nc5c(-c6ccsc6)cccc5[nH]4)c3c2)c1"
  Discrete label: "no (0)"
- Structure smiles string: "Cc1n[nH]c2ccc(-c3cncc(NC4CCNCC4)n3)cc12"
  Discrete label: "yes (1)"
- Structure smiles string: "FC1(F)CCN(Cc2cncc(-c3cnc4[nH]nc(-c5cc6c(-c7ccncc7)cncc6[nH]5)c4c3)c2)C1"
  Discrete label: "no (0)"
- Structure smiles string: "CCC(=O)Nc1cncc(-c2ccc3[nH]nc(-c4nc5c(N6CCCCC6)cncc5[nH]4)c3n2)c1"
  Discrete label: "no (0)"
- Structure smiles string: "CN1CCN(c2ccc(NC(=O)c3n[nH]c4ccc(-c5cncc(NC(=O)C6CC6)c5)cc34)cn2)CC1"
  Discrete label: "yes (1)"
- Structure smiles string: "CN1CCC(Nc2cc(C(=O)Nc3cc4cc(-c5cnn(C)c5)ccc4cn3)ccn2)CC1"
  Discrete label: "yes (1)"
- Structure smiles string: "CCCC(=O)Nc1cncc(-c2cnc3[nH]nc(-c4nc5c(-c6ccccc6F)cncc5[nH]4)c3c2)c1"
  Discrete label: "no (0)"
